Below: a set of entries, each annotated with reported GI50.
System: UO-31
PROTOCOL: NCI tumour cell line growth inhibition, 48 h
The source made the active and inactive calls. No stated cut-off is given here; in the data, active = GI50 up to about 1.1 µM and inactive = higher.

Example compounds with recorded GI50:
[[record]]
compound = "N#Cc1ccc(-n2c3ccccc3c3ccc4c(c32)C(=O)C=CC4=O)cc1"
attribute_measured = "GI50"
measured_value = "1.45 µM (inactive)"

[[record]]
compound = "COc1cc(=O)n2c3ccccc3n(C)c2c1C#N"
attribute_measured = "GI50"
measured_value = "> 100 µM (inactive)"


What reported GI50 corresponds to "On1c(-c2ccccc2)c(-c2c(-c3ccccc3)n(O)c3ccccc23)c2ccccc21" on UO-31?
15.5 µM (inactive)

Follow-up entry: C#CCOC(=O)C(N)CCSC (stereo unspecified)
> 100 µM (inactive)

Follow-up entry: CO[C@H]1C=C[C@]23c4cc5c(cc4CN(CC2O)[C@@H]3C1)OCO5 (stereo partly specified)
2.04 µM (inactive)

Follow-up entry: CC1(CC(=O)O)OC2CCCCCC2O1.NCc1ccccc1 (stereo unspecified)
> 100 µM (inactive)

Follow-up entry: "O=C(O)c1ccc(N/C(=C(/C(Cl)=C(Cl)Cl)[N+](=O)[O-])n2nnc3ccccc32)cc1"
> 100 µM (inactive)

Follow-up entry: CCN(CC)C(=O)CCCCCCCCC1CO1 (stereo unspecified)
> 100 µM (inactive)

Follow-up entry: CCC(C#N)N(Cc1cccc(CN(C(C)=O)C(C#N)CC)c1)C(C)=O (stereo unspecified)
> 100 µM (inactive)

Follow-up entry: C=CCOC(C)n1c(C)c(Br)c(=O)[nH]c1=O (stereo unspecified)
> 100 µM (inactive)

Follow-up entry: "Cn1c2ccccc2c(=NNc2ccc(S(=O)(=O)N=C(N)N)cc2)c2ccccc21"
4.33 µM (inactive)

###

Tested on: EKVX
PROTOCOL: NCI tumour cell line growth inhibition, 48 h
Calls of active or inactive are those of the source. Cut-off read from the data, not from the text of the source: active = GI50 up to about 1.1 µM and inactive = higher.
Below: a set of entries, each annotated with reported GI50.

Example molecules with recorded GI50:
[[record]]
molecule = "Cc1ccc(/C=N/Nc2cnccn2)s1"
measured_value = "80.5 µM (inactive)"

[[record]]
molecule = "CCC(C#N)N(Cc1cccc(CN(C(C)=O)C(C#N)CC)c1)C(C)=O (stereo unspecified)"
measured_value = "> 100 µM (inactive)"

[[record]]
molecule = "Cc1c(C)c(C)c(CSC(=N)N)c(C)c1C"
measured_value = "14.8 µM (inactive)"


What reported GI50 corresponds to "NCc1cc(O)c(O)c(O)c1" on EKVX?
> 100 µM (inactive)

Follow-up entry: "Clc1ccc(C2=NN=C3C(c4ccccc4)=Nc4ccccc4N3C2)cc1"
4.97 µM (inactive)

Follow-up entry: "COc1ccc(C2=NN(C(C)=O)c3nc4ccccc4nc3O2)cc1"
45.6 µM (inactive)

###

Below: a set of entries, each annotated with reported GI50.
Test system: OVCAR-5
PROTOCOL: NCI tumour cell line growth inhibition, 48 h
The source made the active and inactive calls. Cut-off read from the data, not from the text of the source: active = GI50 up to about 1.1 µM and inactive = higher.

[[record]]
compound = "O=C(/C=C/C=C/c1ccccc1)c1ccc2c(c1)CCCC2"
tgt = "OVCAR-5"
attribute_measured = "GI50"
measured_value = "> 100 µM (inactive)"


Look up GI50 for this compound: COC(=O)C(CSSC[C@H](N/C(C)=C/C(C)=O)C(=O)OC)N/C(C)=C/C(C)=O (stereo partly drawn)
18.7 µM (inactive)

###

Below: a set of entries, each annotated with reported GI50.
Test system: UO-31
PROTOCOL: NCI tumour cell line growth inhibition, 48 h
Calls of active or inactive are those of the source. Rule as the data show it: active = GI50 up to about 1.1 µM and inactive = higher.

Example compounds with recorded GI50:
[[record]]
compound = "CCOC(=O)CCCc1cc(O)c2c(C)c3[nH]c4ccc(Cl)cc4c3c(C)c2n1"
attribute_measured = "GI50"
measured_value = "20.1 µM (inactive)"

[[record]]
compound = "NCCN1C(=O)c2cc(Cl)c(Cl)cc2C1(O)c1ccc(Cl)cc1 (stereo not drawn)"
attribute_measured = "GI50"
measured_value = "4.86 µM (inactive)"

[[record]]
compound = "N#Cc1nc(C#N)c(NC(=O)c2ccccc2C(=O)O)[nH]1"
attribute_measured = "GI50"
measured_value = "> 100 µM (inactive)"

[[record]]
compound = "COc1cc2c(cc1OC)C1Cc3cc(OC)c(OC)cc3C(C2)O1"
attribute_measured = "GI50"
measured_value = "83.8 µM (inactive)"


Look up GI50 for this compound: COc1cccc(C(C#N)NC23CC4CC(CC(C4)C2)C3)c1 (stereo not drawn)
> 100 µM (inactive)

Follow-up entry: CC(=O)OC1CCn2c1nc1c2C(=O)C=C(N2CC2)C1=O (stereo not drawn)
0.103 µM (active)

###

System: BT-549
PROTOCOL: NCI tumour cell line growth inhibition, 48 h
The source made the active and inactive calls. Rule as the data show it: active = GI50 up to about 1.1 µM and inactive = higher.
ATTRIBUTE MEASURED: GI50

Example compounds with recorded GI50:
[[record]]
compound = "COc1ccc2c(n1)Sc1nc3ccccc3nc1N2"
measured_value = "41.6 µM (inactive)"

[[record]]
compound = "C/C(=N\\O)c1cccc[n+]1Cc1ccccc1"
measured_value = "> 100 µM (inactive)"

[[record]]
compound = "O=C(/N=N/c1cccc(Cl)c1)NNc1cccc(Cl)c1"
measured_value = "> 10 µM (inactive)"

[[record]]
compound = "CC(=O)Nc1sc(Br)cc1S(=O)(=O)c1ccc(Cl)cc1"
measured_value = "35.6 µM (inactive)"

[[record]]
compound = "COc1cc2ccc1OCc1cccc(n1)COc1ccc(cc1OC)/C=N\\CCNCCNCC/N=C\\2"
measured_value = "> 100 µM (inactive)"

[[record]]
compound = "O=C(Cn1nnc(-c2ccccc2)n1)N/N=C/c1cn(Cc2ccc(Cl)cc2Cl)c2ccccc12"
measured_value = "> 100 µM (inactive)"

[[record]]
compound = "NCC(=O)NC1(c2cc3ccccc3s2)CCCCC1"
measured_value = "54.1 µM (inactive)"

[[record]]
compound = "O=C(O)CC(NC(=O)C(F)(F)F)C(=O)NC1Cc2ccccc2OC1=O (stereo unspecified)"
measured_value = "> 100 µM (inactive)"


Look up GI50 for this compound: "O=C(/C=C/C=C/c1ccccc1)c1ccc2c(c1)CCCC2"
26 µM (inactive)

Follow-up entry: "CCOC(=O)c1nnc2c(C#N)c(-c3ccccc3)c(C)n2c1N"
40.4 µM (inactive)

Follow-up entry: "O=c1c(C(c2ccc(/C=C/c3ccccc3)cc2)c2c(O)oc3cc(O)ccc3c2=O)c(O)oc2cc(O)ccc12"
98.9 µM (inactive)

###

Below: a set of entries, each annotated with reported GI50.
Test system: OVCAR-8
PROTOCOL: NCI tumour cell line growth inhibition, 48 h
The source made the active and inactive calls. No stated cut-off is given here; in the data, active = GI50 up to about 1.1 µM and inactive = higher.

Example compounds with recorded GI50:
[[record]]
compound = "O=C(O)CCNCCCCNCCC(=O)O"
measured_value = "> 100 µM (inactive)"

[[record]]
compound = "CCOC(=O)c1ccc(N2C(=O)/C(=C\\OC)c3ccccc3C2=O)cc1"
measured_value = "20 µM (inactive)"

[[record]]
compound = "c1ccc(C2=Nc3cccc4cccc(c34)N2)cc1"
measured_value = "35.5 µM (inactive)"

[[record]]
compound = "CCOC(=O)c1ccc(N2C(=S)N(C(=O)c3ccccc3)C(=N/c3ccccc3)/C2=N\\c2ccccc2)cc1"
measured_value = "24.7 µM (inactive)"

[[record]]
compound = "N#C[BH2-][n+]1cn(C2CC(O)C(COP(=O)(O)OC3CC(n4cnc5c(=O)[nH]c(N)nc54)OC3CO)O2)c2nc(N)[nH]c(=O)c21 (stereo not given)"
measured_value = "> 100 µM (inactive)"


Look up GI50 for this compound: "Cc1nc2c(=S)[nH]ncc2[nH]1"
> 100 µM (inactive)

Follow-up entry: "N#Cc1c2c(c(N=P(c3ccccc3)(c3ccccc3)c3ccccc3)n3c1nc1ccccc13)CCCC2"
13 µM (inactive)

Follow-up entry: "COCN/C(N)=N/C#N"
> 100 µM (inactive)

Follow-up entry: "O=C(O)[C@@]1(Cc2ccc(O)cc2)C[C@@H]2Cc3ccccc3N2N1"
> 100 µM (inactive)

Follow-up entry: "CN(C)/N=N/c1c[nH]nc1C(N)=O"
> 100 µM (inactive)

###

Tested on: BT-549
PROTOCOL: NCI tumour cell line growth inhibition, 48 h
Activity calls are given as the source filed them. Rule as the data show it: active = GI50 up to about 1.1 µM and inactive = higher.
ATTRIBUTE MEASURED: GI50

[[record]]
compound = "Nc1c(S(=O)(=O)O)cc(S(=O)(=O)O)c2ccc(/N=N/c3ccccc3)c(O)c12"
attribute_measured = "GI50"
measured_value = "> 100 µM (inactive)"

[[record]]
compound = "N#Cc1ncn(-c2ccccc2)c1N"
attribute_measured = "GI50"
measured_value = "> 100 µM (inactive)"

[[record]]
compound = "O=[N+]([O-])/C(Cl)=C(\\NCCN/C(C(Cl)=C(Cl)Cl)=C(/Cl)[N+](=O)[O-])C(Cl)=C(Cl)Cl"
attribute_measured = "GI50"
measured_value = "69 µM (inactive)"

[[record]]
compound = "CC(NNC(=O)c1ccncc1)c1ccc(F)cc1 (stereo not drawn)"
attribute_measured = "GI50"
measured_value = "> 100 µM (inactive)"

[[record]]
compound = "CCOP(=O)(Nc1ccc(-c2ccc(N)cc2)cc1)OCC"
attribute_measured = "GI50"
measured_value = "> 100 µM (inactive)"

[[record]]
compound = "Oc1cc(Cl)cc2cc(Cl)cnc12"
attribute_measured = "GI50"
measured_value = "4.73 µM (inactive)"


What reported GI50 corresponds to "Cn1c([N+](=O)[O-])cnc1CN1CCN(CCO)CC1" on BT-549?
> 100 µM (inactive)

Follow-up entry: COc1cc2c(cc1O)C1CC(CC3CCCCN31)OC(=O)/C=C\c1ccc(O)c-2c1 (stereo not drawn)
27.9 µM (inactive)

The reported numbers originate from ChEMBL document CHEMBL1201862.
